Target: UniProtKB Q05941
Sequence (Q05941 23-502): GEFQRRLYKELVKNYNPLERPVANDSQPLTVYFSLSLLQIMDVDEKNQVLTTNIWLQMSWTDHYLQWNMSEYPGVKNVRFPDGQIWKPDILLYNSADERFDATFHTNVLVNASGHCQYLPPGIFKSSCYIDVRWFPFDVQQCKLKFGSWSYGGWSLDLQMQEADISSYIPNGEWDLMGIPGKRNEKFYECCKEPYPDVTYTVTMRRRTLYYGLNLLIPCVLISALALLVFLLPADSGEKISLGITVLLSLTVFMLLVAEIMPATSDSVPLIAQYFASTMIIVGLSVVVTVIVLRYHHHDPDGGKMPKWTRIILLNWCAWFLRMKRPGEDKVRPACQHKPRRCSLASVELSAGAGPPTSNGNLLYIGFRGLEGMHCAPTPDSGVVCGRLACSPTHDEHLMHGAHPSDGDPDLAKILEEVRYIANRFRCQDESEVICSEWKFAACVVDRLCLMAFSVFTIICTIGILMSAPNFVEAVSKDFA
Test: Radioligand ([3H]MLA) binding at α7 nAChR, rat hippocampus membranes
REPORTED_METRIC: pKi
API: returns pKi as number; meaning -log10 of concentration in mol/L.

Use the examples below as a reference point.
• O=C(c1ccco1)N1CC2CNCC(C2)C1 = 4.82
• Cc1ccc(C(=O)N2CC3CNCC3C2)o1 (stereo not drawn) = 4.64

Record summary for O=C(c1ccc(Br)o1)N1CC2CNCC2C1 (stereo not drawn) : reported pKi = 4.92

###

Listing: Ki of selected compounds
Target: human α4β2 nAChR subtype (Homo sapiens (Human), UniProt P17787+P43681)
Sequence (P43681 29-627): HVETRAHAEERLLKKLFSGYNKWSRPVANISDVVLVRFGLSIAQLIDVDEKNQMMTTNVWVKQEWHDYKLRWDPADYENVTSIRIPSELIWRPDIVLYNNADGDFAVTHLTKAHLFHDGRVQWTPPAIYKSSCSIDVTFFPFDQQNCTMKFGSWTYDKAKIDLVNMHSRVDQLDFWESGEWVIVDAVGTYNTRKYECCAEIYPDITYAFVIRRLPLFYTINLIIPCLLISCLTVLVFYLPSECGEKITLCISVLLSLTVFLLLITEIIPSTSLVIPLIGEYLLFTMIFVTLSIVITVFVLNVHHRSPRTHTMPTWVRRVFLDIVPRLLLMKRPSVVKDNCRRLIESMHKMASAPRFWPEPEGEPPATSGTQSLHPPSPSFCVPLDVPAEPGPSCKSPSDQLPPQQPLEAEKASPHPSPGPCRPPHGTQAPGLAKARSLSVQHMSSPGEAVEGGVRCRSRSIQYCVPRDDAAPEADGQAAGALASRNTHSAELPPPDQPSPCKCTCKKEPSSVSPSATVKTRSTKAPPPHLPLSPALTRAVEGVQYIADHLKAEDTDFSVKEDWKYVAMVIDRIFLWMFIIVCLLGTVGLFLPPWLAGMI
Sequence (P17787 26-502): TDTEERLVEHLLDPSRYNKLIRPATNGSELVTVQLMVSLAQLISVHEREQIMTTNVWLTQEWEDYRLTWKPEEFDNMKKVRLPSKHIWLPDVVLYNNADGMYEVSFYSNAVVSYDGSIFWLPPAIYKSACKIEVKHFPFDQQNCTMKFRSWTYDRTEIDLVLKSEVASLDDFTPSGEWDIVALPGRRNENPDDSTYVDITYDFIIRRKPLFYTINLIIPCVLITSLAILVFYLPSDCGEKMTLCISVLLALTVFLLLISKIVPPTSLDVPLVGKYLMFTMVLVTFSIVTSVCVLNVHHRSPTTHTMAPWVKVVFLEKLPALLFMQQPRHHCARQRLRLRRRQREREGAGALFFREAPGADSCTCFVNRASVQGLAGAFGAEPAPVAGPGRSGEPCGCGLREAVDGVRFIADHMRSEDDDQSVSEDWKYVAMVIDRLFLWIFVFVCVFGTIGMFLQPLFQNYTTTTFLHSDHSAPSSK
Assay: Radioligand ([3H]nicotine) binding at α4β2 nAChR, SH-EP1/human α4β2 clonal cell membranes
Settings: [3H]nicotine 5 nM, SH-EP1/human α4β2 membranes; read-out: Human α4β2 Ki
Write it as a number; the unit nM goes unstated.

Use the examples below as a reference point.
* O=C(c1cc(-c2ccoc2)co1)N1CC2CNCC2C1 (stereo not shown) | 95
* COc1cc(C(=O)N2CC3CNCC(C3)C2)on1 | 180
* O=C(c1cnco1)N1CC2CNCC(C2)C1 | 26
* O=C(c1ccncc1)N1CC2CNCC(C2)C1 | 18
* Cc1cc(C(=O)N2CC3CNCC(C3)C2)on1 | 47
* O=C(c1occc1Cl)N1CC2CNCC(C2)C1 | 29
* O=C(c1ccc(C#Cc2ccccc2)o1)N1CC2CNCC2C1 (stereo not shown) | 43
* Cc1nocc1C(=O)N1CC2CNCC2C1 (stereo not shown) | 14
* Cc1ncoc1C(=O)N1CC2CNCC(C2)C1 | 64
* CCCCC#Cc1coc(C(=O)N2CC3CNCC3C2)c1 (stereo not shown) | 21

Record summary for CC(=O)Nc1ccc(C(=O)N2CC3CNCC(C3)C2)o1 : reported Ki = 210

Record summary for O=C(c1ccno1)N1CC2CNCC2C1 (stereo not shown) : reported Ki = 69

Record summary for C#Cc1ccc(C(=O)N2CC3CNCC3C2)o1 (stereo not shown) : reported Ki = 48

###

Listing: pKi of selected compounds
Biological target: rat α4β2 nAChR subtype (Rattus norvegicus (Rat), UniProt P09483+P12390)
Sequence (P09483 31-630): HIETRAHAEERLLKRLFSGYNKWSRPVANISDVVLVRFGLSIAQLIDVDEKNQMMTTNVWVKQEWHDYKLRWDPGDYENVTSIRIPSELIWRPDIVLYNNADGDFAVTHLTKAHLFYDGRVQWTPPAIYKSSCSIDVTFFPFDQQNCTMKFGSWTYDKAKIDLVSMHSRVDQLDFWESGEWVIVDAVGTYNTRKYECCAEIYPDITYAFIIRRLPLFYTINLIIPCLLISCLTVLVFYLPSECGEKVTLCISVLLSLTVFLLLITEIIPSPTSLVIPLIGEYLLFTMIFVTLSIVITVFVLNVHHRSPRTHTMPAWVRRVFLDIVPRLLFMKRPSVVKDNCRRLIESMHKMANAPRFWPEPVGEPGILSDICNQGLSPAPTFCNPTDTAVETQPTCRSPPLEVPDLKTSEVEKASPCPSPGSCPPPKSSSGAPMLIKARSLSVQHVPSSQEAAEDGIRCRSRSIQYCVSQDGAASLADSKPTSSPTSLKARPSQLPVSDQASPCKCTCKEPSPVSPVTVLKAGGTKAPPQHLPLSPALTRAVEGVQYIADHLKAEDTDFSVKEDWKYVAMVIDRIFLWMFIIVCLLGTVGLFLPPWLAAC
Sequence (P12390 25-500): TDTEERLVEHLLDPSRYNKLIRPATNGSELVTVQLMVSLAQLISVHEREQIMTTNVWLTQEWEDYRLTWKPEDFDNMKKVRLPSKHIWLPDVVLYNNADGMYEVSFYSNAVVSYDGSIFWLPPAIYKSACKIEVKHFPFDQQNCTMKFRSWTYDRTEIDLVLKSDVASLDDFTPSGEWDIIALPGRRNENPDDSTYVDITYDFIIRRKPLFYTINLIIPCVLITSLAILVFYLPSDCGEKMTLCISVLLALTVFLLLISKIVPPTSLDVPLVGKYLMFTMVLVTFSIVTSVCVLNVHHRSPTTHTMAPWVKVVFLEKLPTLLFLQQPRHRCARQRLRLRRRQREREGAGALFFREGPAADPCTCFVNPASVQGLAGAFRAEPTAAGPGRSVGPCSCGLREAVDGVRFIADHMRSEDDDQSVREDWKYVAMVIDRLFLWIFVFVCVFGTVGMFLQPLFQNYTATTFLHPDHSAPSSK
Test: Radioligand ([3H]nicotine) binding at α4β2 nAChR, rat cortex membranes
Details: [3H]nicotine 5 nM, rat cortex membranes
API: returns pKi as number; meaning -log10 of concentration in mol/L.

Record summary for O=C(c1ccc(F)o1)N1CC2CNCC(C2)C1 : reported pKi = 8.19

Record summary for O=C(c1cc(-c2ccoc2)co1)N1CC2CNCC(C2)C1 : reported pKi = 7.92

Record summary for O=C(c1cc(Br)co1)N1CC2CNCC2C1 (stereo not shown) : reported pKi = 7.54

Record summary for Cc1ccoc1C(=O)N1CC2CNCC2C1 (stereo not shown) : reported pKi = 7.36

Record summary for O=C(c1ccc([N+](=O)[O-])o1)N1CC2CNCC2C1 (stereo not shown) : reported pKi = 7.46

###

Molecular target: human α4β2 nAChR subtype (Homo sapiens (Human), UniProt P17787+P43681)
Assay: Radioligand ([3H]nicotine) binding at α4β2 nAChR, SH-EP1/human α4β2 clonal cell membranes
Description: Preparation of Membranes from SH-EP1/Human α4β2 Clonal Cells: Cell pellets from 40 150 mm culture dishes were pooled, and homogenized by Polytron (Kinematica GmbH, Switzerland) in 20 milliliters of ice-cold preparative buffer. […] On the day of the assay, the frozen membranes were thawed and spun at 48,000×g for 20 min. […] Protein concentrations were determined using a Pierce BCA Protein Assay Kit, with bovine serum albumin as the standard (Pierce Chemical Company, Rockford, Ill.). […]
REPORTED_METRIC: Ki (nM)
Write it as a number; the unit nM goes unstated.

Form field, Ki with human α4β2 nAChR subtype (Homo sapiens (Human), UniProt P17787+P43681), item N#Cc1coc(C(=O)N2CC3CNCC(C3)C2)c1 : 23

###

Target: human α4β2 nAChR subtype (Homo sapiens (Human), UniProt P17787+P43681)
Assay: Radioligand ([3H]nicotine) binding at α4β2 nAChR, SH-EP1/human α4β2 clonal cell membranes
Conditions: [3H]nicotine 5 nM, SH-EP1/human α4β2 membranes; read-out: Human α4β2 Ki
Method: Preparation of Membranes from SH-EP1/Human α4β2 Clonal Cells: Cell pellets from 40 150 mm culture dishes were pooled, and homogenized by Polytron (Kinematica GmbH, Switzerland) in 20 milliliters of ice-cold preparative buffer. […] On the day of the assay, the frozen membranes were thawed and spun at 48,000×g for 20 min. […] Protein concentrations were determined using a Pierce BCA Protein Assay Kit, with bovine serum albumin as the standard (Pierce Chemical Company, Rockford, Ill.). […]
REPORTED_METRIC: pKi
API: returns pKi as number; meaning -log10 of concentration in mol/L.

Use the examples below as a reference point.
- Cc1ccoc1C(=O)N1CC2CNCC2C1 (stereo not shown): 7.27
- O=C(c1occc1F)N1CC2CNCC(C2)C1: 7.24
- Cc1cc(C(=O)N2CC3CNCC3C2)no1 (stereo not shown): 7.08
- O=C(c1cc(C(F)(F)F)co1)N1CC2CNCC2C1 (stereo not shown): 7.44
- C=Cc1ccoc1C(=O)N1CC2CNCC2C1 (stereo not shown): 7.29

Record summary for Cc1ncoc1C(=O)N1CC2CNCC2C1 (stereo not shown) : reported pKi = 8.04

Record summary for O=C(c1cc(-c2ccccc2)co1)N1CC2CNCC2C1 (stereo not shown) : reported pKi = 7.07

###

Target: rat α4β2 nAChR subtype (Rattus norvegicus (Rat), UniProt P09483+P12390)
Experiment: Radioligand ([3H]nicotine) binding at α4β2 nAChR, rat cortex membranes
Listing: log10(Ki) of selected compounds
Please interpret these as log10 of Ki where Ki is in nM.

Use the examples below as a reference point.
* Cc1cc(C(=O)N2CC3CNCC(C3)C2)on1 | 1.46
* COc1cc(C(=O)N2CC3CNCC(C3)C2)on1 | 1.52
* N#Cc1ccoc1C(=O)N1CC2CNCC2C1 (stereo not drawn) | 1.40
* Cc1cc(F)c(C(=O)N2CC3CNCC3C2)o1 (stereo not drawn) | 1.81
* Cc1cc(C(=O)N2CC3CNCC(C3)C2)no1 | 1.83

Record summary for N#Cc1ccc(C(=O)N2CC3CNCC(C3)C2)o1 : reported log10(Ki) = 1.54

###

Target: rat α4β2 nAChR subtype (Rattus norvegicus (Rat), UniProt P09483+P12390)
Experiment: Radioligand ([3H]nicotine) binding at α4β2 nAChR, rat cortex membranes
Settings: [3H]nicotine 5 nM, rat cortex membranes
Listing: pKi of selected molecules
API: returns pKi as number; meaning -log10 of concentration in mol/L.

Use the examples below as a reference point.
- COc1coc(C(=O)N2CC3CNCC3C2)c1OC (stereo not shown): 6.85
- O=C(c1ccc(C#Cc2ccccc2)o1)N1CC2CNCC2C1 (stereo not shown): 6.64
- O=C(c1cc(-c2cc(F)cc(F)c2)co1)N1CC2CNCC(C2)C1: 8.20

Let us examine a further case.
Form field, pKi with rat α4β2 nAChR subtype (Rattus norvegicus (Rat), UniProt P09483+P12390), item O=C(c1cc(Br)no1)N1CC2CNCC2C1 (stereo not shown) : 7.77

###

Listing: pKi of selected compounds
Target: human α4β2 nAChR subtype (Homo sapiens (Human), UniProt P17787+P43681)
Test: Radioligand ([3H]nicotine) binding at α4β2 nAChR, SH-EP1/human α4β2 clonal cell membranes
Conditions: read-out: Human α4β2 Ki
API: returns pKi as number; meaning -log10 of concentration in mol/L.

Use the examples below as a reference point.
• N#Cc1ccoc1C(=O)N1CC2CNCC2C1 (stereo not shown) = 7.85
• O=C(c1ccc(F)o1)N1CC2CNCC(C2)C1 = 8.34
• Cc1oncc1C(=O)N1CC2CNCC(C2)C1 = 7.51
• N#Cc1ccc(C(=O)N2CC3CNCC(C3)C2)o1 = 8.06
• O=C(c1cc(Br)no1)N1CC2CNCC(C2)C1 = 7.74

Record summary for N#Cc1ccc(C(=O)N2CC3CNCC3C2)o1 (stereo not shown) : reported pKi = 7.40

Record summary for COc1ccoc1C(=O)N1CC2CNCC(C2)C1 : reported pKi = 7.55

Record summary for O=C(c1cc(Br)co1)N1CC2CNCC(C2)C1 : reported pKi = 8.77

Record summary for O=C(c1occc1Br)N1CC2CNCC(C2)C1 : reported pKi = 7.77

Record summary for Cc1cc(C(=O)N2CC3CNCC(C3)C2)no1 : reported pKi = 7.02

###

Molecular target: human α4β2 nAChR subtype (Homo sapiens (Human), UniProt P17787+P43681)
Test: Radioligand ([3H]nicotine) binding at α4β2 nAChR, SH-EP1/human α4β2 clonal cell membranes
Settings: [3H]nicotine 5 nM, SH-EP1/human α4β2 membranes; read-out: Human α4β2 Ki
REPORTED_METRIC: Ki (µM)
Write it as a number; the unit µM goes unstated.

* O=C(c1ccc(Cl)o1)N1CC2CNCC(C2)C1 | 0.0073
* O=C(c1ccco1)N1CC2CNCC(C2)C1 | 0.0099
* O=C(c1cc(F)co1)N1CC2CNCC(C2)C1 | 0.014

Let us examine a further case.
Record summary for Cc1cc(F)c(C(=O)N2CC3CNCC3C2)o1 (stereo not shown) : reported Ki = 0.014
